- target.entity: Aβ1-42 aggregates (Homo sapiens)
- Construct: Preparing receptor Aβ1-42 proteins according to the existing method
- Sequence (P05067 672-713 limits assumed): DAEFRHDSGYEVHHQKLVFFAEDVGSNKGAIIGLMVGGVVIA
- measurement.description: In-vitro competitive binding experiments (Ki determination) with Aβ1-42 aggregates
pKi: −log10 of the molar value.
value.kind: pKi

1) CN(C)c1ccc(OCc2ccc(I)cc2)cc1
7.68
2) CNc1ccc(OCc2ccc(OCCF)cc2)cc1
6.34

a = Fc1ccc(OCc2ccc(I)cc2)cc1
b = CN(C)c1cccc(OCc2ccc(I)cc2)c1
Given a and b , report the one with the higher recorded pKi. Output the label that corresponds to your choice.
a

---

- measurement.description: Biological distribution in bodies of normal mice
- Type: in vivo, mice (ICR)
- cond: caudal vein injection, 60 min
value.kind: Blood (% ID/g)

Examples from the recorded data:
1. COc1ccc(COc2ccc(OCCOCCOCC[18F])cc2)cc1 [[^18F] 53b]
2.36
2. CN(C)c1ccc(OCc2ccc([125I])cc2)cc1 [[^125I]22]
1.34
3. CN(C)c1ccc(-c2cn3cc([125I])ccc3n2)cc1 [[^125I]IMPY, reference compound]
1.03
4. COc1ccc(OCc2ccc(OCC[18F])cc2)cc1 [[^18F]44a]
3.86
5. FCCOc1ccc(COc2ccc([125I])cc2)cc1 [[^125I]35a]
3.01
6. COc1ccc(COc2ccc(OCC[18F])cc2)cc1 [[^18F] 53a]
3.05

A = COc1ccc(COc2ccc([125I])cc2)cc1 [[^125I]24]
B = COc1ccc(OCc2ccc([125I])cc2)cc1 [[^125I]4]
Between A and B , which one shows the smaller Blood number? Output the label that corresponds to your choice.
B
(B: 1.70 % ID/g, A: 2.60 % ID/g)
